Target: Regulator of G-protein signaling 4 (Homo sapiens)
Assay: Inhibitors of Regulator of G Protein Signaling (RGS) 4: qHTS; also: nearly all actives have a fitted effect of over 75% in size
Conditions: Transcreener GDP fluorescence polarization, RGS4-accelerated GTP hydrolysis; series mostly up to 114 µM
Screen size: about 390,000 compounds; about 150 (0.038%) were called active. Inconclusive results (about 3%) are left out. Calls follow the shape of the dose curve; as a rule, active = well fitted inhibition curve with a large enough effect; inconclusive = small, poorly fitted or top-dose-only effect; inactive = no such curve, though single readings can be large or run the other way. This is one part of a sample in which actives are shown more often than they occur.
Outcome codes: active, inactive

[[record]]
compound = "COc1ccc(CNC(=O)Cn2nnc(-c3ccccc3F)n2)cc1"
assigned_label = "inactive"

[[record]]
compound = "CC(C)S(=O)(=O)c1oc(-c2ccc(F)cc2)nc1S(=O)(=O)c1ccc(F)cc1"
assigned_label = "inactive"

[[record]]
compound = "O=C(Nc1c(C(=O)N2CCN(c3ccc(F)cc3)CC2)oc2ccccc12)c1ccco1"
assigned_label = "inactive"

[[record]]
compound = "CCCCCCCCCCCC(=O)O"
assigned_label = "inactive"

[[record]]
compound = "Cc1cc2c(cc3c(SCc4cccc(Cl)c4)nnc(C)n32)o1"
assigned_label = "inactive"

[[record]]
compound = "CCCCC/C=C\\CC1OC1CCCCCCCC(=O)O (stereo not drawn)"
assigned_label = "active"

[[record]]
compound = "Cc1ccc(C)c(N2CCN(C(=O)Cn3nc(C)c4sc5ccccc5c4c3=O)CC2)c1"
assigned_label = "inactive"

[[record]]
compound = "COc1ccc(C2Nc3ccc(NC(=O)COC(C)=O)cc3C(=O)N2Cc2ccccc2)cc1COc1ccc(NC(C)=O)cc1 (stereo not drawn)"
assigned_label = "inactive"

[[record]]
compound = "COc1ccc(Cn2c(=O)[nH]c3cc(C(=O)N4CCN(C(=O)c5ccco5)CC4)ccc3c2=O)cc1"
assigned_label = "inactive"

[[record]]
compound = "CSc1nc(Nc2ccc(F)cc2)cc(-c2ccccc2)n1"
assigned_label = "inactive"

[[record]]
compound = "CCOC(=O)c1[nH]c(C)c(CCC(=O)NCc2ccccc2C)c1C"
assigned_label = "inactive"

[[record]]
compound = "CCn1c(CN2CCC(C)CC2)nc2cc(NC(=O)c3ccccc3[N+](=O)[O-])ccc21"
assigned_label = "inactive"

[[record]]
compound = "COc1cc(CN(CC2CCCO2)C(=O)c2ccccc2F)cc(OC)c1OC (stereo not drawn)"
assigned_label = "inactive"

[[record]]
compound = "COc1cccc(CNCCSc2nnnn2C)c1OCc1ccccc1Cl"
assigned_label = "inactive"

[[record]]
compound = "O=C(Nc1cc(C(F)(F)F)ccc1Cl)c1ccc2c(c1)CCN2S(=O)(=O)c1ccccc1"
assigned_label = "inactive"

[[record]]
compound = "O=C(NCc1ccccc1)c1cccc(NC(=O)N2CCSc3ncccc32)c1"
assigned_label = "inactive"

[[record]]
compound = "O=[N+]([O-])c1ccc(S(=O)(=O)N2CCN(c3nc(-c4ccccc4)nc4ccccc34)CC2)cc1"
assigned_label = "inactive"

[[record]]
compound = "CCn1cc(C(=O)NCCc2ccccc2)c(=O)c2cc(S(=O)(=O)N3CCCCCC3)ccc21"
assigned_label = "inactive"

